Origin of values: PubChem BioAssay AID1963862

# System: KRAS patient-derived spheroids with HUVEC/MSC, viability;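 note: spheroids exposed to agents for seven days before readout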
# protocolDetails: Anticancer human tumor 941728-121-R-J1-PDC patient-derived lung adenocarcinoma cell line growth inhibition [KRAS2]
# assayConditions: second compound 3.16 µM; first compound 1 µM; active compounds read low
viability, T/C under 20% gets 1 (yes), anything at or over 20% gets 0 (no).

compound	group
CC1OCC2(CCN(c3cnc(Sc4ccnc(N)c4Cl)c(N)n3)CC2)C1N (stereo not given) + C=CC(=O)N1CCN(c2nc(=O)n(-c3c(C)ccnc3C(C)C)c3nc(-c4c(O)cccc4F)c(F)cc23)C(C)C1	0 (no)
CCN1CCN(Cc2ccc(Nc3ncc(F)c(-c4cc(F)c5nc(C)n(C(C)C)c5c4)n3)nc2)CC1 + CC1OCC2(CCN(c3cnc(Sc4ccnc(N)c4Cl)c(N)n3)CC2)C1N	1 (yes)
COC(=O)c1ccc2c(C(=Nc3ccc(N(C)C(=O)CN4CCN(C)CC4)cc3)c3ccccc3)c(O)[nH]c2c1 + C=CC(=O)N1CCN(c2nc(=O)n(-c3c(C)ccnc3C(C)C)c3nc(-c4c(O)cccc4F)c(F)cc23)C(C)C1	1 (yes)
Cn1nccc1Nc1nccc(-c2cc3c(s2)C(C)(C)N(CCN2CCOCC2)C3=O)n1 + C=CC(=O)N1CCN(c2nc(=O)n(-c3c(C)ccnc3C(C)C)c3nc(-c4c(O)cccc4F)c(F)cc23)C(C)C1	0 (no)

Consider the record given below.
Consider the compound COc1cc2nccc(Oc3ccc(NC(=O)C4(C(=O)Nc5ccc(F)cc5)CC4)cc3)c2cc1OC + C=CC(=O)N1CCN(c2nc(=O)n(-c3c(C)ccnc3C(C)C)c3nc(-c4c(O)cccc4F)c(F)cc23)C(C)C1 . Is its viability, T/C strictly less than 20%? 1 (yes)
